Values from ChEMBL document CHEMBL3244202

Protocol Notes: Aqueous solubility of the compound in phosphate buffer at pH 7
Format: physicochemical
Value Kind: solubility (µg/mL)
Kindly provide the numeric value in µg/mL only, without the unit symbol.

Some solved entries appear below for comparison.
O=C(O)c1cc(-c2cscn2)ccc1O; 2700
O=C(O)c1cc(-c2ccns2)ccc1O; 7300

Task: Find the recorded solubility belonging to O=C(O)c1cc(-n2ccnc2)ccc1O and report it.
Result: 2000

Task: Please give the measured solubility for this molecule: O=C(O)c1cc(C2N=NN=N2)ccc1O
Result: 1700

====

Protocol Notes: Aqueous solubility of the compound in phosphate buffer at pH 7
Assay type: physicochemical
Value Kind: solubility (µg/mL)
Give just the number in µg/mL; leave the unit off.

O=C(O)c1cc(-c2ncccn2)ccc1O; 6000

Task: So what's the measured solubility for this one? O=C(O)c1cc(-c2c[nH]cn2)ccc1O
Result: 1100

Task: Suppose we examine the compound O=C(O)c1cc(-c2ncco2)ccc1O ; what solubility value has been reported?
Result: 6000
